Data credit: patent US20170334899A1

Test system: human cervical tumor cell line HeLa (ATCC CCL-2)
measurement description: SAC-Formation - Nocodazole-Induced Assay
Format: cell-based
experimental parameters: Homo sapiens, HeLa, 24 h, HeLa cells, nocodazole 0.1 μg/ml together with test compound, decrease of mitotic cells (phospho-histone H3 Ser10)
pIC50: −log10 of the molar value.
parameter measured: pIC50

> print(dat)
                                    compound  parameter.measured  experimental.result
 1  Cc1nsc(Nc2cnc3ccccc3n2)c1C(=O)Nc1cccc(C(=O)N2CCN(CCN(C)C)CC2)c1 [Example 90]               pIC50                 6.10
 2  Cc1nsc(Nc2cnc(C(F)(F)F)cn2)c1C(=O)Nc1ccc(OCC2CCCN(CCF)C2)nc1 (centres unmarked) [Example 325]               pIC50                 6.96
 3  Cc1nsc(Nc2cnc3ccccc3n2)c1C(=O)Nc1cccc(NS(=O)(=O)C2CCN(CC(F)(F)F)CC2)c1 [Example 281]               pIC50                 5.92
 4  Cc1nsc(Nc2cnc(C(F)(F)F)cn2)c1C(=O)Nc1ccc(O[C@@H]2CCN(CC(F)(F)F)C[C@@H]2F)nc1 [Example 138]               pIC50                 6.96
 5  Cc1nsc(Nc2cnc(C(F)(F)F)cn2)c1C(=O)Nc1ccc(OCCN)c(F)c1 [Example 221]               pIC50                 7.04
 6  CC(=O)Nc1cc(NC(=O)c2c(C)nsc2Nc2cnc(C(F)(F)F)cn2)ccc1F [Example 206]               pIC50                 6.96
 7  Cc1nsc(Nc2cnc3ccccc3n2)c1C(=O)Nc1cccc(C(=O)N2CCN(C(=O)OC(C)(C)C)CC2)c1 [Example 55]               pIC50                 6.03
 8  Cc1nsc(Nc2cnc3ccccc3n2)c1C(=O)Nc1cccc(-c2nnc(C(C)(C)C)o2)c1 [Example 107]               pIC50                 7.96
 9  CCNC(=O)c1cccc(NC(=O)c2c(C)nsc2Nc2ccc(C#N)cn2)c1 [Example 252]               pIC50                 6.28
10  Cc1nsc(Nc2cncc(C(F)(F)F)n2)c1C(=O)Nc1ccc(F)c(OC2CCN(CCF)CC2)c1 [Example 269]               pIC50                 6.92
11  Cc1nsc(Nc2cnc(C(F)(F)F)cn2)c1C(=O)Nc1ccc(OCCCN(C)CCC(F)(F)F)nc1 [Example 355]               pIC50                 6.82
12  Cc1nsc(Nc2cnc(C(F)(F)F)cn2)c1C(=O)Nc1ccc(F)c(OCCCN(C)CCC(F)(F)F)c1 [Example 303]               pIC50                 7.29
13  Cc1nsc(Nc2cnc(C(F)(F)F)cn2)c1C(=O)Nc1ccc(F)c(OCC2CCN(CCF)C2)c1 (centres unmarked) [Example 317]               pIC50                 7.06
14  Cc1nsc(Nc2cnc(C(F)(F)F)cn2)c1C(=O)Nc1ccc(OCCNCCC(F)(F)F)nc1 [Example 323]               pIC50                 7.52
